Provide the recorded z-score for the entries that follow.
EXPERIMENTAL DETAILS: DUSP6 inhibitors restoring Erk phosphorylation by chemical complementation, primary imaging in DUSP6-transfected HeLa (AID 609)
RUN CONDITIONS: HeLa MKP-3 transfected, phospho-Erk imaging KS statistic; measured here: nuclear pErk red intensity z-score; at 10 µM; stronger effect = higher value; cells stimulated with TPA for 15 min

Given the entry COc1ccc2nc(SCC(=O)O)nc(C)c2c1 , report its measured z-score.
0.21

What does the data say about its z-score? Entry: COC(=O)/C=c1/s/c(=C(/C#N)C(=O)N2CCCCC2)n(-c2ccccc2)c1=O
0.258

So what's the measured z-score for this one? COc1cccc(OC)c1C(=O)Nc1nc2ccc(S(C)(=O)=O)cc2s1
-1.02

Entry under review: O=C(c1cc(N2CCCCC2)nc2ccccc12)N1CCOCC1 . Reported z-score?
1.42

# query: z-score of entry CCOC(=O)C1=C(C)NC(=O)C1CC(=O)Nc1ccccc1 (stereo unspecified)
0.408

Name the recorded z-score for O=C(C/C(=N/O)c1ccccc1O)C(F)F .
1.49

What does the record list as z-score for C=CCn1c(SCC(=O)c2ccc(NS(=O)(=O)c3ccccc3)cc2)nnc1-c1cccs1 ?
0.993

// z-score lookup, key: CC(C)Cc1[nH]c(=O)c(C#N)c2c1COC(C)(C)C2
-0.389

Entry under review: CCOC(=O)C1=C(N)N2C(=O)CSC2=C(C(=O)OC)C1 . Reported z-score?
-1.91

Which z-score is reported for this molecule? COCCCNC(=O)c1c(N)n(/N=C/c2ccccn2)c2nc3ccccc3nc12
1.17

Consider the molecule c1ccc(-n2ncc3c(N4CCCC4)ncnc32)cc1 and give its measured z-score.
-0.224
